TARGET_DESC: mGlu2 (Rattus norvegicus (Rat), UniProt P31421)
Sequence (P31421 19-872): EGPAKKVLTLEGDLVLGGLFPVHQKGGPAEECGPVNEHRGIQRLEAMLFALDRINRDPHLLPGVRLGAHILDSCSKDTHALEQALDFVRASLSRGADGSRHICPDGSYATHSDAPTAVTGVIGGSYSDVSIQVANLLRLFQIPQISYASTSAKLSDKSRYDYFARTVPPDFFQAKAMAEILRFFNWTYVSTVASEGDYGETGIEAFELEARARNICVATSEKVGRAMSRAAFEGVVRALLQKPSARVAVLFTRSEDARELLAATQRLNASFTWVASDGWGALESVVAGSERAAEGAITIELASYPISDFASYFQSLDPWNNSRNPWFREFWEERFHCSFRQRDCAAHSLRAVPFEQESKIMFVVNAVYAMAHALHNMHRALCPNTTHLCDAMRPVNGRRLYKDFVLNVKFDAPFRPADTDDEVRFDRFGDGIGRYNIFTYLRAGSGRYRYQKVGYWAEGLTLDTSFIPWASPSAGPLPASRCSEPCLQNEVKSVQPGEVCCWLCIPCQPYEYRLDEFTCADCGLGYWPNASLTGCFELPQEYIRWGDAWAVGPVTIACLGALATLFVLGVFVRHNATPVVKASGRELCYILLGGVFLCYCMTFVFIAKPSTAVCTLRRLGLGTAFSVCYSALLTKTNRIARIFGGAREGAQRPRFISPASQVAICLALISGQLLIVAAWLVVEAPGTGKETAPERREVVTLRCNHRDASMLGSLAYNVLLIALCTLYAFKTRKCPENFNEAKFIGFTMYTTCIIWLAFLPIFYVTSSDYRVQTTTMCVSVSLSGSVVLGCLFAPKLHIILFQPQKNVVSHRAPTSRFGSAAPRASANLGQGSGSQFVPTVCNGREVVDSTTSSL
ASSAY_PROTOCOL: mGlu2 GIRK thallium flux assay;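 note: Cell-based assay, rate of fluorescence rise right after thallium plus agonist addition read on a kinetic imaging plate reader, normalized to vehicle and maximal agonist control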
CONDITION_PARAMETERS: read-out: mGlu2 PAM Max
OUTCOME_MEASURE: Emax (%)

> print(dat)
                          structure.notation                               target.desc  value.observed
 1  COc1ccc(C#N)cc1OCCCCOc1ccc(C(=O)CC(C)(C)C)c(O)c1C  mGlu2 (Rattus norvegicus (Rat), UniProt P31421)            48.2
 2  Cc1c(OCc2cccc(-c3ccc(F)c(C(=O)O)c3)c2)ccc(C(=O)CC(C)(C)C)c1O  mGlu2 (Rattus norvegicus (Rat), UniProt P31421)            88.5
 3  CC(C)(C)CC(=O)c1ccc(OCc2cccc(-c3cccc(C(=O)O)c3)c2)c(I)c1O  mGlu2 (Rattus norvegicus (Rat), UniProt P31421)              82
 4  Cc1c(OCc2cccc(-c3cccc(CC(=O)O)c3)c2)ccc(C(=O)CC(C)(C)C)c1O  mGlu2 (Rattus norvegicus (Rat), UniProt P31421)            93.4
 5  CC(C)(C)CC(=O)c1ccc(OCc2cccc(-c3cccc(C(=O)O)c3)c2)c(Br)c1O  mGlu2 (Rattus norvegicus (Rat), UniProt P31421)            79.5
 6  Cc1c(OCCCCOc2ccc3c(c2)B(O)OC3)ccc(C(=O)CC(C)(C)C)c1O  mGlu2 (Rattus norvegicus (Rat), UniProt P31421)            83.9
 7  Cc1c(OCc2cccc(-c3ccc(C(=O)O)cc3)c2)ccc(C(=O)CC(C)(C)C)c1O  mGlu2 (Rattus norvegicus (Rat), UniProt P31421)            90.5
 8  COc1ccc(C(=O)Nc2ccccn2)cc1OCCCCOc1ccc(C(=O)CC(C)(C)C)c(O)c1C  mGlu2 (Rattus norvegicus (Rat), UniProt P31421)            74.8
 9  COc1ccc(-c2noc(=O)[nH]2)cc1OCCCCOc1ccc(C(=O)CC(C)(C)C)c(O)c1C  mGlu2 (Rattus norvegicus (Rat), UniProt P31421)             101
10  Cc1c(OCc2cccc(-c3cccc(C(=O)O)c3)c2)ccc(C(=O)CC2CCCC2)c1O  mGlu2 (Rattus norvegicus (Rat), UniProt P31421)            97.5
11  Cc1c(OCc2cccc(-c3cccc(-c4noc(=O)[nH]4)c3)c2)ccc(C(=O)CC(C)(C)C)c1O  mGlu2 (Rattus norvegicus (Rat), UniProt P31421)             111
12  CCN(CC)C(=O)c1ccc(OC)c(OCCCCOc2ccc(C(=O)CC(C)(C)C)c(O)c2C)c1  mGlu2 (Rattus norvegicus (Rat), UniProt P31421)            96.4
13  Cc1c(OCc2ccc(-c3cccc(C(=O)O)c3)cc2)ccc(C(=O)CC(C)(C)C)c1O  mGlu2 (Rattus norvegicus (Rat), UniProt P31421)            97.1
14   Cc1c(OCCCCOc2ccccn2)ccc(C(=O)CC(C)C)c1O  mGlu2 (Rattus norvegicus (Rat), UniProt P31421)            66.3
15  COc1ccc(C(=O)Nc2ccccc2)cc1OCCCCOc1ccc(C(=O)CC(C)(C)C)c(O)c1C  mGlu2 (Rattus norvegicus (Rat), UniProt P31421)            23.1
16  COc1ccc(-c2nsc(=O)[nH]2)cc1OCCCCOc1ccc(C(=O)CC(C)(C)C)c(O)c1C  mGlu2 (Rattus norvegicus (Rat), UniProt P31421)            68.1
17  Cc1c(OCc2cccc(-c3cnccc3C(=O)O)c2)ccc(C(=O)CC(C)(C)C)c1O  mGlu2 (Rattus norvegicus (Rat), UniProt P31421)            88.4
18  Cc1c(OCc2cccc(-c3cccc(C(=O)NS(C)(=O)=O)c3)c2)ccc(C(=O)CC(C)(C)C)c1O  mGlu2 (Rattus norvegicus (Rat), UniProt P31421)             105
19  CCCC(=O)c1ccc(OCc2cccc(-c3cccc(C(=O)O)c3)c2)c(C)c1O  mGlu2 (Rattus norvegicus (Rat), UniProt P31421)            92.9
20  Cc1c(OCc2cccc(-c3cc(C(=O)O)ccc3F)c2)ccc(C(=O)CC(C)(C)C)c1O  mGlu2 (Rattus norvegicus (Rat), UniProt P31421)            88.2
21  Cc1c(OCc2ncc(-c3cccc(C(=O)O)c3)s2)ccc(C(=O)CC(C)(C)C)c1O  mGlu2 (Rattus norvegicus (Rat), UniProt P31421)            98.2
22  Cc1c(OCc2nnc(-c3cccc(C(=O)O)c3)s2)ccc(C(=O)CC(C)(C)C)c1O  mGlu2 (Rattus norvegicus (Rat), UniProt P31421)            85.6
23  Cc1c(OCc2cc(-c3cccc(C(=O)O)c3)ccn2)ccc(C(=O)CC(C)(C)C)c1O  mGlu2 (Rattus norvegicus (Rat), UniProt P31421)             106
24  COc1ccc(C(=O)NC(C)(C)C)cc1OCCCCOc1ccc(C(=O)CC(C)(C)C)c(O)c1C  mGlu2 (Rattus norvegicus (Rat), UniProt P31421)            38.6
25  CONC(=O)c1ccc(OC)c(OCCCCOc2ccc(C(=O)CC(C)(C)C)c(O)c2C)c1  mGlu2 (Rattus norvegicus (Rat), UniProt P31421)            82.4
26  CNC(=O)c1ccc(OC)c(OCCCCOc2ccc(C(=O)CC(C)(C)C)c(O)c2C)c1  mGlu2 (Rattus norvegicus (Rat), UniProt P31421)            70.9
27  COc1ccc(C(=O)O)cc1OCCCCOc1ccc(C(=O)CCC(C)(C)C)c(O)c1C  mGlu2 (Rattus norvegicus (Rat), UniProt P31421)            88.6
28  Cc1c(OCc2cccc(-c3cc(C(=O)O)cc([N+](=O)[O-])c3)c2)ccc(C(=O)CC(C)(C)C)c1O  mGlu2 (Rattus norvegicus (Rat), UniProt P31421)            98.7
29  COc1ccc(-c2noc(=S)[nH]2)cc1OCCCCOc1ccc(C(=O)CC(C)(C)C)c(O)c1C  mGlu2 (Rattus norvegicus (Rat), UniProt P31421)              81
30  Cc1c(OCc2cccc(-c3ccc(C(=O)O)cc3Cl)c2)ccc(C(=O)CC(C)(C)C)c1O  mGlu2 (Rattus norvegicus (Rat), UniProt P31421)            98.6
31  Cc1c(OCc2cccc(-c3cccc(-c4nn[nH]n4)c3)c2)ccc(C(=O)CC(C)(C)C)c1O  mGlu2 (Rattus norvegicus (Rat), UniProt P31421)             103

###

TARGET_DESC: mGlu3 (Rattus norvegicus (Rat))
Sequence (P31422 23-879): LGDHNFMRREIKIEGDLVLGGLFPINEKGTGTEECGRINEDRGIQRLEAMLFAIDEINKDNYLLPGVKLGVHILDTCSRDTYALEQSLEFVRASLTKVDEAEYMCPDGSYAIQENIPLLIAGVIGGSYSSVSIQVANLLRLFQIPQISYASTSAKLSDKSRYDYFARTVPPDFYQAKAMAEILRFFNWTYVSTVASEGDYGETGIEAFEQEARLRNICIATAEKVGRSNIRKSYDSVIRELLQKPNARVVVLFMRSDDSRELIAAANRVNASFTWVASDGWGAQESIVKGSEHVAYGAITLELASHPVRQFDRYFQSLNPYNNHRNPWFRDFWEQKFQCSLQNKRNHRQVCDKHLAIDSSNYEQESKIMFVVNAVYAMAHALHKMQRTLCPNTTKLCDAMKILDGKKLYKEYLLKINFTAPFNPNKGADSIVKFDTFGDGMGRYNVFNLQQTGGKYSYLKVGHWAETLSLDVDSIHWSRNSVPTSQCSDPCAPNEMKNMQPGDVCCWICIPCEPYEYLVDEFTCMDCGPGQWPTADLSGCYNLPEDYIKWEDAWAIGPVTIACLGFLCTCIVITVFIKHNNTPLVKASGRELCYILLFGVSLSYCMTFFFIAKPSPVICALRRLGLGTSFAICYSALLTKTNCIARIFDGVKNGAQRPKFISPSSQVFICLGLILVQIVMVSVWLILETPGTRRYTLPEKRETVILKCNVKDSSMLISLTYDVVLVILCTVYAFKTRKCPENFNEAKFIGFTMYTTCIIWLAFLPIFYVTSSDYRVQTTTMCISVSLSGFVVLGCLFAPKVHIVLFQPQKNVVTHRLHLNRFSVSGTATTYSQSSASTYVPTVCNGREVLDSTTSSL
ASSAY_PROTOCOL: mGlu3 GIRK thallium flux assay
CONDITION_PARAMETERS: read-out: mGlu3 PAM Max
Emax by entry:
OUTCOME_MEASURE: Emax (%)

> print(dat)
                                   molecule  value.observed
1  COc1ccc(C(=O)O)cc1-c1cncc(COc2ccc(C(=O)CC(C)(C)C)c(O)c2C)c1 [compound 160]             110
2  Cc1c(OCc2ccc(-c3cccc(C(=O)O)c3)cc2)ccc(C(=O)CC(C)(C)C)c1O [compound 142]            88.7
3  COc1ccc(C(=O)Nc2ccccn2)cc1OCCCCOc1ccc(C(=O)CC(C)(C)C)c(O)c1C [compound 106]            97.4
4  CCN(CC)C(=O)c1ccc(OC)c(OCCCCOc2ccc(C(=O)CC(C)(C)C)c(O)c2C)c1 [compound 103]             111

###

TARGET_DESC: mGlu2 (Rattus norvegicus (Rat))
ASSAY_PROTOCOL: mGlu2 GIRK thallium flux assay
CONDITION_PARAMETERS: read-out: mGlu2 PAM EC50; PAM mode; test compound, then EC20 glutamate […] later in the presence of thallium; mean ± SEM, at least three experiments
EC50 by entry:
OUTCOME_MEASURE: EC50 (nM)

> print(dat)
                                    compound  comparison.operator  value.observed
 1  COC(=O)CCc1cc(OCCCCOc2ccc(C(=O)CC3CCCC3)c(O)c2C)ccc1O [compound 86]                    >           10000
 2  Cc1c(OCc2cccc(-c3cccc(C(=O)O)c3)c2)ccc(C(=O)CC(C)C)c1O [compound 137]                    =             181
 3  COC(=O)c1ccc(OCc2cccc(COc3ccc(C(=O)CC(C)C)c(O)c3C)c2)cc1 [compound 119]                    >           30000
 4  Cc1c(OCc2cccc(-c3ccc(C(=O)O)cc3Cl)c2)ccc(C(=O)CC(C)(C)C)c1O [compound 147]                    =             460
 5  COc1ccc(C(=O)N2CCOCC2)cc1OCCCCOc1ccc(C(=O)CC(C)(C)C)c(O)c1C [compound 101]                    =             875
 6  Cc1c(OCc2ccc(-c3cccc(C(=O)O)c3)o2)ccc(C(=O)CC(C)(C)C)c1O [compound 158]                    =             328
 7  Cc1c(OCc2cccc(-c3ccc(Cl)c(C(=O)O)c3)c2)ccc(C(=O)CC2CCCC2)c1C [compound 171]                    >           30000
 8  COC(=O)c1ccc(OCCCCOc2ccc(C(=O)CC3CCCC3)c(C)c2C)cc1 [Compound 15]                    >           30000
 9  Cc1c(OCc2cccc(-c3cc(C(=O)O)cc([N+](=O)[O-])c3)c2)ccc(C(=O)CC(C)(C)C)c1O [compound 146]                    =             564
10  COc1ccc(C(=O)NC2CC2)cc1OCCCCOc1ccc(C(=O)CC(C)(C)C)c(O)c1C [compound 109]                    =             765
11  Cc1c(OCc2cccc(COc3ccc(C(=O)O)cc3)c2)ccc(C(=O)CC(C)C)c1C [compound 123]                    >           30000
12  COc1ccc(/C(N)=N/O)cc1OCCCCOc1ccc(C(=O)CC(C)(C)C)c(O)c1C [compound 97]                    >           10000
13  COc1ccc(-c2cccc(COc3ccc(C(=O)CC(C)(C)C)c(O)c3C)c2)cc1C(=O)O [compound 140]                    =             489
14  COC(=O)c1ccc(OCc2cccc(COc3ccc(C(=O)CC4CCCC4)c(C)c3C)c2)cc1 [compound 155]                    >           30000
15  Cc1c(OCCCCOc2ccc(C#N)cc2)ccc(C(=O)CC(C)C)c1C [compound 77]                    >           30000
16  Cc1c(OCc2ccc(-c3cccc(C(=O)O)c3)cc2)ccc(C(=O)CC(C)(C)C)c1O [compound 142]                    =            3180

Reference source: patent US10099993B2
